Answer each item with its documented shrunken log2 fold change.
Test system: Escherichia coli TOP10;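 further: peptides expressed intracellularly from a pBAD plasmid library in pooled LB shake-flask culture, induced with 0.3% L-arabinose, DNA abundance read by NGS, three biological replicates, DESeq2 with apeglm shrinkage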
procedure.text: shrunken log2 fold change of peptide-encoding DNA abundance (4.5 h post-induction vs induction); higher = less antimicrobial activity (less host growth inhibition)
experimental.conditions: time post-induction: 4.5 h; library: site-saturation at positions 5, 18, 19, 20
No unit in the answer, please; the number alone is enough.

Entry RRIRQRPPRLPRPRPRPKFRPRP : reported shrunken log2 fold change = ?
0.0034

Entry RRIRERPPRLPRPRPRPAQRPRP : reported shrunken log2 fold change = ?
0.324

Entry RRIRCRPPRLPRPRPRPFIHPRP : reported shrunken log2 fold change = ?
-1.43

Entry RRIRNRPPRLPRPRPRPTENPRP : reported shrunken log2 fold change = ?
0.0685

Entry RRIRTRPPRLPRPRPRPSPCPRP : reported shrunken log2 fold change = ?
-0.0588

Entry RRIRHRPPRLPRPRPRPYKNPRP : reported shrunken log2 fold change = ?
-0.646

Entry RRIRCRPPRLPRPRPRPQFGPRP : reported shrunken log2 fold change = ?
-0.233

Entry RRIRQRPPRLPRPRPRPQIHPRP : reported shrunken log2 fold change = ?
-0.246

Entry RRIRVRPPRLPRPRPRPSNLPRP : reported shrunken log2 fold change = ?
-0.586

Entry RRIRVRPPRLPRPRPRPPSVPRP : reported shrunken log2 fold change = ?
0.129

Entry RRIRERPPRLPRPRPRPDRAPRP : reported shrunken log2 fold change = ?
0.00194

Entry RRIRVRPPRLPRPRPRPDHGPRP : reported shrunken log2 fold change = ?
-0.0218

Entry RRIRMRPPRLPRPRPRPWVTPRP : reported shrunken log2 fold change = ?
-0.15

Entry RRIRARPPRLPRPRPRPCVRPRP : reported shrunken log2 fold change = ?
0.135

Entry RRIRARPPRLPRPRPRPWQLPRP : reported shrunken log2 fold change = ?
-0.106

Entry RRIRIRPPRLPRPRPRPQRQPRP : reported shrunken log2 fold change = ?
0.098

Entry RRIRGRPPRLPRPRPRPHYVPRP : reported shrunken log2 fold change = ?
-0.0585

Entry RRIRWRPPRLPRPRPRPCCWPRP : reported shrunken log2 fold change = ?
0.438

Entry RRIRRRPPRLPRPRPRPAKIPRP : reported shrunken log2 fold change = ?
0.117

Entry RRIRERPPRLPRPRPRPKRCPRP : reported shrunken log2 fold change = ?
-0.0369

Entry RRIRSRPPRLPRPRPRPKVFPRP : reported shrunken log2 fold change = ?
-0.063

Entry RRIRKRPPRLPRPRPRPSSGPRP : reported shrunken log2 fold change = ?
-0.0282

Entry RRIRTRPPRLPRPRPRPWQCPRP : reported shrunken log2 fold change = ?
0.00408

Entry RRIRCRPPRLPRPRPRPKNQPRP : reported shrunken log2 fold change = ?
-0.112

Entry RRIRRRPPRLPRPRPRPELPPRP : reported shrunken log2 fold change = ?
0.695

Entry RRIRIRPPRLPRPRPRPDIAPRP : reported shrunken log2 fold change = ?
-0.659

Entry RRIRIRPPRLPRPRPRPNDKPRP : reported shrunken log2 fold change = ?
-0.647

Entry RRIRSRPPRLPRPRPRPRYNPRP : reported shrunken log2 fold change = ?
-0.479

Entry RRIRKRPPRLPRPRPRPTGVPRP : reported shrunken log2 fold change = ?
0.00874

Entry RRIRIRPPRLPRPRPRPFTKPRP : reported shrunken log2 fold change = ?
-0.173

Entry RRIRHRPPRLPRPRPRPMFQPRP : reported shrunken log2 fold change = ?
-0.0107

Entry RRIRMRPPRLPRPRPRPQCKPRP : reported shrunken log2 fold change = ?
-0.0461
